# test method notes: BSK_KF3CT_SRB: Viability Assessment in the BioMAP Diversity Plus: KF3CT Assay (AID 2283069);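 note: total protein by sulforhodamine B staining as a cytotoxicity measure; read 24 h after compound addition; fitted for both signal gain and loss against DMSO baseline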
# experimental parameters: primary human keratinocytes with fibroblasts
Calls of active or inactive are those of the source. Rule for the calls: active = hit-call score of the fitted dose curve at least 0.9, where 1 is the maximum; inactive = score below 0.9.
Result category, one only: active, inactive

CC1=C(/C=C/C(C)=C/C=C/C(C)=C/CO)C(C)(C)CCC1	inactive
O=c1c(O)c(-c2ccc(O)c(O)c2)oc2cc(O)cc(O)c12	active

Attention now shifts to the item below.
How was O=C(OCCCCCOC(=O)c1ccccc1)c1ccccc1 classified in this test?
inactive

* * *

# test method notes: STM_H9_NormalizedViability: Cytotoxicity Assessment at 120 hours in the Stemina devTOX quickPredict H9 human embryonic stem cell (hESC)-based Assay (AID 2283784)
Records with an inconclusive call do not appear. The source made the active and inactive calls. Rule for the calls: active = hit-call score of the fitted dose curve at least 0.9, where 1 is the maximum; inconclusive = response in the unintended direction; inactive = score below 0.9.
Result category, one only: active, inactive

These recorded examples may help you get a feel for the data.
COC(=O)c1ccc(O)cc1	inactive
CCCCc1ccc2c(n1)[C@@H](c1ccc(OC)cc1C[C@H](C)C(=O)O)[C@H](C(=O)O)[C@H]2c1ccc2c(c1)OCO2	inactive
OC[C@@H](O)[C@@H](O)[C@H](O)[C@H](O)CO	inactive
COCCOCCOC	inactive
O=c1[nH]cc(F)c(=O)[nH]1	active

API: the following record is the query input.
Name the outcome recorded for CC1=C(/C=C/C(C)=C/C=C/C(C)=C/CO)C(C)(C)CCC1 in the assay.
inactive

* * *

# target: Estrogen receptor (Homo sapiens)
# test method notes: OT_ERa_GFPERaERE_0480: Odyssey Thera (OT) 8-hour HeLa Transcription Induction Assay for Estrogen Receptor (AID 2283381)
Calls of active or inactive are those of the source. Rule for the calls: active = hit-call score of the fitted dose curve at least 0.9, where 1 is the maximum; inactive = score below 0.9.
measured endpoint: outcome

Sample records with outcome:
CCCCCCCC=O	inactive
C[C@]12C=CC(=O)C=C1CC[C@@H]1[C@@H]2C(=O)C[C@@]2(C)[C@H]1CC[C@]2(O)C(=O)CO	inactive
C=CCOC(=O)c1ccccc1C(=O)OCC=C	inactive
CCCCOC(=O)CCCCCCCCC(=O)OCCCC	inactive
CCCCCCCCCCCCCCCCCC(=O)O	inactive
Cc1nc(-c2ccc3c(c2)CCN(CCC2CCC(NC(=O)/C=C/c4ccc(F)cc4)CC2)CC3)no1 (stereo unspecified)	inactive

Quickly give me recorded outcome for O=C(O)CCCCC(=O)O
inactive

In one line, give reported outcome of the entry NC(=O)Cn1c(=O)cc(CCN2CCN(c3nccc4sccc34)CC2)c2ccc(F)cc21 .
inactive

* * *

# target: Heat shock factor protein 1 (Homo sapiens)
# test method notes: ATG_HSE_CIS: Attagene CIS-FACTORIAL HepG2 Assay for human Heat Shock Transcription Factor 1 (HSE) (AID 2282953)
# experimental parameters: HepG2 HSE cis-reporter, Attagene RNA transcription; actives raise or lower the signal
Active and inactive are the calls of the source. The calls were made as follows: active = hit-call score of the fitted dose curve at least 0.9, where 1 is the maximum; inactive = score below 0.9.
Hi there, use one of these labels in your reply, thanks! active, inactive

Can you look up the reported call for CCCCCCC(=O)OCC for me?
inactive

// param item: CC1(C)CC(N=C=O)CC(C)(CN=C=O)C1 (configuration not stated) ; yields the recorded call
inactive

Per the records of this test, what outcome belongs to Cc1oc(-c2ccccc2)nc1CCOc1cccc2c1ccn2CCC(=O)O ?
inactive

# outcome recorded in this test, key = NC(=O)Cn1c(=O)cc(CCN2CCN(c3nccc4sccc34)CC2)c2ccc(F)cc21
inactive

How did this test come out for CC(C)(C)c1cc(O)c(C(C)(C)C)cc1O ?
active

GET /call?item= COCCOC[C@H](CC1(C(=O)NC2CCC(C(=O)O)CC2)CCCC1)C(=O)Oc1ccc2c(c1)CCC2 (some centres not stated) returns the recorded outcome of this test.
inactive

Outcome? Cc1ccc(C)c(O)c1C
inactive

* * *

# test method notes: CEETOX_H295R_OHPREG: CeeTox H295R High-throughput Steroidogenesis Assay for OH-Pregnenolone (OHPREG) (AID 2283434)
# experimental parameters: actives raise or lower the signal
Active and inactive are the calls of the source. Rule for the calls: active = hit-call score of the fitted dose curve at least 0.9, where 1 is the maximum; inactive = score below 0.9.
API: response.call in active, inactive

Cc1nc(C)nc(N2C[C@@H](C)N(c3ccnc([C@@H](C)O)n3)[C@@H](C)C2)n1	inactive

// switching to the query compound
I'd appreciate the recorded outcome for NC(=O)Cn1c(=O)cc(CCN2CCN(c3nccc4sccc34)CC2)c2ccc(F)cc21 from this test.
active

* * *

# test method notes: ATG_SREBP_CIS: Attagene CIS-FACTORIAL HepG2 Assay for human Sterol Regulatory Element Binding (SREBP) (AID 2282962)
# experimental parameters: HepG2 Attagene cis-factorial SREBP reporter, mRNA; actives raise or lower the signal
Activity calls are given as the source filed them. The calls were made as follows: active = hit-call score of the fitted dose curve at least 0.9, where 1 is the maximum; inactive = score below 0.9.
measured endpoint: AC50

A selection of reference data follows.
c1cc(-c2ccncc2)ccn1	inactive
FC(F)(F)C(F)(F)C(F)(F)C(F)(F)C(F)(F)C(F)(F)CCI	inactive
CC1=C(/C=C/C(C)=C/C=C/C(C)=C/CO)C(C)(C)CCC1	inactive
CC(C)c1ccc(C(=O)N=C(N)N)cc1S(C)(=O)=O	inactive
COc1cc(/C=C/C(=O)CC(=O)/C=C/c2ccc(O)c(OC)c2)ccc1O	56.8 µM (active)
CCCCCCC(=O)OCC	inactive

Entry CC=Cc1ccc(O)c(OC)c1 needs its AC50 filled in; supply it.
inactive

Answer with the recorded AC50 for the compound listed here: NS(=O)(=O)c1cc2c(cc1Cl)NCNS2(=O)=O
inactive

Specify AC50 for O=c1[nH]cc(F)c(=O)[nH]1 and stop.
18.3 µM (active)

// Input: Cc1cc(NC(=O)C(=O)O)cc(C)c1Oc1ccc(O)c2c1CCC2 . Output its AC50 only.
inactive

Query AC50 for Cc1ccc(N(C)C)cc1
inactive

Give recorded AC50. CC(CO)OC(C)CO (configuration not stated) (tested in a mixture with another compound)
inactive

* * *

# Read-out: Cytochrome P450 (CYP24A1), CYP24A1 (gene 1591)
# test method notes: LTEA_HepaRG_CYP24A1: Life Technologies and Expression Analysis (LTEA) Assay for Cytochrome P450 (CYP24A1) using HepaRG (AID 2283478)
# experimental parameters: mRNA level, 48 h; actives raise or lower the signal
Activity calls are given as the source filed them. The calls were made as follows: active = hit-call score of the fitted dose curve at least 0.9, where 1 is the maximum; inactive = score below 0.9.
measured endpoint: AC50

Solved entries (count: 6):
O=C(O)CCCCC(=O)O	inactive
COc1cc(C=O)ccc1O	inactive
CCc1c(C(=O)NN2CCCCC2)nn(-c2ccc(Cl)cc2Cl)c1-c1ccc(Br)cc1	inactive
CCCCCCCCCCC	inactive
NS(=O)(=O)c1cc2c(cc1Cl)NCNS2(=O)=O	inactive
COCCOCCOC	388 nM (active)

Note down AC50 recorded for O=[N+]([O-])C(CO)(CO)CO
inactive

Could you please provide reported AC50 for CC=Cc1ccc(O)c(OC)c1 ? Thanks!
inactive

Specify AC50 for COC(=O)c1ccc(O)cc1 and stop.
inactive

Consider the compound CC1(C)CC(N=C=O)CC(C)(CN=C=O)C1 (centres undefined) and give its recorded AC50.
inactive

Quick one: give measured AC50 for Cc1cccc(Nc2cc(Cl)nc(SCC(=O)O)n2)c1C
inactive

Indicate the recorded AC50 value for this compound: c1cc(-c2ccncc2)ccn1
inactive

Identify measured AC50 associated with Cc1ccccc1Cl
inactive

Indicate its recorded AC50; the compound in question is CC(CO)OC(C)CO (centres undefined) (tested in a mixture with another compound)
inactive

* * *

# Read-out: growth arrest and DNA damage 45 (GADD45B), GADD45B (gene 4616)
# test method notes: LTEA_HepaRG_GADD45B: Life Technologies and Expression Analysis (LTEA) Assay for growth arrest and DNA damage 45 (GADD45B) using HepaRG (AID 2283461)
# experimental parameters: mRNA level, 48 h; actives raise or lower the signal
# Experimental: LTEA_HepaRG is a cell based, multiplexed-readout assay that uses HepaRG, a human liver cell line, with measurements taken at 48 hours after chemical dosing on a 96-well plate.LTEA_HepaRG_GADD45B is one of 102 assay component(s) measured in the LTEA HepaRG cell culture assay. It is a marker of Cell proliferation, survival, death.Data from the assay component LTEA_HepaRG_GADD45B was analyzed into 1 endpoint. […]
Activity calls are given as the source filed them. How the source made its calls: active means hit-call score of the fitted dose curve at least 0.9, where 1 is the maximum; inactive means score below 0.9.
Use one of these outcomes when replying: true = active, false = inactive

# count of solved cases: 10
Cc1cc(=O)[nH]c(=S)[nH]1	false
CNC(=O)[C@H]1O[C@@H](n2cnc3c(NCc4cc(Cl)ccc4OCc4cc(C)no4)ncnc32)[C@H](O)[C@@H]1N	false
CCCCCCCC=O	false
Cc1cc(NC(=O)C(=O)O)cc(C)c1Oc1ccc(O)c2c1CCC2	false
CC1(C)CC(N=C=O)CC(C)(CN=C=O)C1 (configuration not stated)	false
CCOC(=O)CCC(=O)OCC	false
CCCCCCOCCO	false
Oc1ccc2ccccc2c1N=Nc1ccccc1	true
C[Si]1(C)O[Si](C)(C)O[Si](C)(C)O[Si](C)(C)O1	false
CC(=O)C(C)=CC1C(C)=CCCC1(C)C (configuration not stated)	false

What call does the record list for CCOc1ccc2c(c1)C(C)=CC(C)(C)N2 ?
false

Field: outcome | Entry: O=c1c(O)c(-c2ccc(O)c(O)c2)oc2cc(O)cc(O)c12
false

Record request — test call for COc1cc(C=O)ccc1O
false

How was COCCOCCOC classified in this test?
false
